Reference source: ChEMBL document CHEMBL2176986

Test system: Liver
TEST_METHOD_NOTES: Half life in mouse liver microsomes
Format: ADME, Microsome
PROPERTY_MEASURED: t1/2 (h)
A number alone suffices; assume h.

Here are 3 compounds together with their reported answers.
### Prompt Please provide the recorded t1/2 for `C=C(C)c1cccc(C(C)(C)NC(=O)Nc2ccc(Cl)c(C(N)=O)c2)c1` , tested on Liver.
### Response 0.417

### Prompt Please provide the recorded t1/2 for `C=C(C)c1cccc(C(C)(C)NC(=O)Nc2ccc3cccnc3c2)c1` , tested on Liver.
### Response 0.0983

### Prompt Please provide the recorded t1/2 for `C/C(=N\OCCN)c1cccc(C(C)(C)NC(=O)Nc2ccc(Cl)c([N+](=O)[O-])c2)c1` , tested on Liver.
### Response 2.02

More entries:
### Prompt Please provide the recorded t1/2 for `C/C(=N\O)c1cccc(C(C)(C)NC(=O)Nc2ccc(Cl)c(C(N)=O)c2)c1` , tested on Liver.
### Response 3.17

###

Listing of entries alongside the reported IC50.
TESTED_ON: Inosine-5'-monophosphate dehydrogenase (Cryptosporidium parvum)
TEST_METHOD_NOTES: Inhibition of Cryptosporidium parvum recombinant IMPDH expressed in Escherichia coli assessed as production of NADH in presence of 0.05% fatty acid free BSA incubated for 5 mins by fluorescence based assay
A number alone suffices; assume nM.

### Prompt Given the compound `C/C(=N\O)c1cccc(C(C)(C)NC(=O)Nc2ccc(Cl)c(C(N)=O)c2)c1` , what is its reported IC50?
### Response 6

### Prompt Given the compound `C=C(C)c1cccc(C(C)(C)NC(=O)Nc2ccc(Cl)c(C(F)(F)F)c2)c1` , what is its reported IC50?
### Response 20

### Prompt Given the compound `C=C(C)c1cccc(C(C)(C)NC(=O)Nc2cnc3ccccc3c2)c1` , what is its reported IC50?
### Response 308

### Prompt Given the compound `CC(C)(NC(=O)Nc1ccc(Cl)c(C(N)=O)c1)c1cccc(-c2ccccc2)c1` , what is its reported IC50?
### Response 14

### Prompt Given the compound `C=C(C)c1cccc(C(C)(C)NC(=O)Nc2ccc3c(c2)OCCO3)c1` , what is its reported IC50?
### Response 110

### Prompt Given the compound `CO/N=C(\C)c1cccc(C(C)(C)NC(=O)Nc2ccc(Cl)c(C(F)(F)F)c2)c1` , what is its reported IC50?
### Response 18

### Prompt Given the compound `C/C(=N\OCCN)c1cccc(C(C)(C)NC(=O)Nc2ccc(Cl)c([N+](=O)[O-])c2)c1` , what is its reported IC50?
### Response 24

### Prompt Given the compound `C=C(C)c1cccc(C(C)(C)NC(=O)N(C)c2ccc(Cl)cc2)c1` , what is its reported IC50?
### Response 5000

More entries:
### Prompt Given the compound `CO/N=C(\C)c1cccc(C(C)(C)NC(=O)Nc2ccc3ccccc3c2)c1` , what is its reported IC50?
### Response 13

###

Listing of entries alongside the reported IC50.
TESTED_ON: Inosine-5'-monophosphate dehydrogenase (Cryptosporidium parvum, UniProt Q8T6T2)
Sequence (Q8T6T2 whole entry): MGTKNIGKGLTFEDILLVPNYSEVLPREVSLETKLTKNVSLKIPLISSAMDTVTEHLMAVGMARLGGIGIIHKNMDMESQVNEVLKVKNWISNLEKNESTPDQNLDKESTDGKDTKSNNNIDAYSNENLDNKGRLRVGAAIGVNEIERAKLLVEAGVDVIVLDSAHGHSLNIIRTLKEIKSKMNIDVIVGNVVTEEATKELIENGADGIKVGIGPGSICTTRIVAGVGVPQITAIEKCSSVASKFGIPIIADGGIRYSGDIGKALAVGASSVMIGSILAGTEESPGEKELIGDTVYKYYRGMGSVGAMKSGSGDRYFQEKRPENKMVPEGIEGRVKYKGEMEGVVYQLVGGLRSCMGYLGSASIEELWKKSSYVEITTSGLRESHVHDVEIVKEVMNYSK
TEST_METHOD_NOTES: Inhibition of Cryptosporidium parvum recombinant IMPDH expressed in Escherichia coli assessed as production of NADH incubated for 5 mins by fluorescence based assay
A number alone suffices; assume nM.

### Prompt Given the molecule `C=C(C)c1cccc(C(C)(C)NC(=O)Nc2cnc3ccccc3c2)c1` , what is its reported IC50?
### Response 70

### Prompt Given the molecule `CO/N=C(\C)c1cccc(C(C)(C)NC(=O)Nc2ccc3ccccc3c2)c1` , what is its reported IC50?
### Response 1.6

### Prompt Given the molecule `C=C(C)c1cccc(C(C)(C)NC(=O)Nc2ccc(Cl)c(C(=O)NC)c2)c1` , what is its reported IC50?
### Response 7

### Prompt Given the molecule `C=C(C)c1cccc(C(C)(C)NC(=O)Nc2ccc3ccccc3c2)c1` , what is its reported IC50?
### Response 2.1

### Prompt Given the molecule `CO/N=C(\C)c1cccc(C(C)(C)NC(=O)Nc2ccc(Cl)c(C(F)(F)F)c2)c1` , what is its reported IC50?
### Response 5

### Prompt Given the molecule `C=C(C)c1cccc(C(C)(C)NC(=O)Nc2ccc3c(c2)OCCO3)c1` , what is its reported IC50?
### Response 7.2

### Prompt Given the molecule `CC(=O)c1cccc(C(C)(C)OC(=O)Nc2ccc(Cl)cc2)c1` , what is its reported IC50?
### Response 90

### Prompt Given the molecule `C=C(C)c1cccc(C(C)(C)NC(=O)Nc2ccc(OC)cc2)c1` , what is its reported IC50?
### Response 9

### Prompt Given the molecule `CO/N=C(\C)c1cccc(C(C)(C)NC(=O)Nc2ccc(Cl)c(C(N)=O)c2)c1` , what is its reported IC50?
### Response 5

### Prompt Given the molecule `CC(C)(NC(=O)Nc1ccc(Cl)c(C(N)=O)c1)c1cccc(-c2ccccc2)c1` , what is its reported IC50?
### Response 4
